assayed.target: human Y4 receptor (human, UniProt P50391 1-375)
Sequence (P50391 whole entry): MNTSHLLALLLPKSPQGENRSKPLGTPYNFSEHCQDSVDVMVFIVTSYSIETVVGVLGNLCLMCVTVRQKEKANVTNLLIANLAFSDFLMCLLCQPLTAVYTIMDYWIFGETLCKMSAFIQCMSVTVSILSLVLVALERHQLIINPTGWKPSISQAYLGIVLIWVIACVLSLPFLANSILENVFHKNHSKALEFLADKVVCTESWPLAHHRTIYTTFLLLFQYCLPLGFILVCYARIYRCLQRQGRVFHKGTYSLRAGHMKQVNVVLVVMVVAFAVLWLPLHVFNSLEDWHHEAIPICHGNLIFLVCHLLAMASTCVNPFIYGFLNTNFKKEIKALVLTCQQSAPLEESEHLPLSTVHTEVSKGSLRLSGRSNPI
experiment: 125I-PP displacement
Each entry below lists one item and its recorded IC50 value.
// note: answer is a bare numeric in pM

Example results:
| binder | u | IC50 |
| --- | --- | --- |
| APLEPEYPGDDATPQQMAQYAAELRRYINMLTRPRY [6819] | pM | 140 |
| AAPLEPVYPGDNATPEELVKYYSALRRYINMLTRPRY [6862] | pM | 110 |
| APLEPFYPGDNATPEQMAQYAAALRKYINMLTRPRY [6809] | pM | 210 |
| APLEPFYPGDDATPQQMARYAAELRRYINMLTRPRY [6816] | pM | 150 |

Input line: Given the entry HAPLEPVYPGDNATPEELVKYYSALRRYINMLTRPRY [6860] , report its measured IC50.
Output line: 110

Input line: Given the entry AAPLEPVYPGDNATPEQLAQYAADLRRYINLLTRPRY [6657] , report its measured IC50.
Output line: 250
